Listed binders paired with reported EC50
target-entity: T1, human CDH6 on tumor cells (OVCAR3 cells, PA-1 cells) (human, UniProt P55285 54-790)
T1 sequence: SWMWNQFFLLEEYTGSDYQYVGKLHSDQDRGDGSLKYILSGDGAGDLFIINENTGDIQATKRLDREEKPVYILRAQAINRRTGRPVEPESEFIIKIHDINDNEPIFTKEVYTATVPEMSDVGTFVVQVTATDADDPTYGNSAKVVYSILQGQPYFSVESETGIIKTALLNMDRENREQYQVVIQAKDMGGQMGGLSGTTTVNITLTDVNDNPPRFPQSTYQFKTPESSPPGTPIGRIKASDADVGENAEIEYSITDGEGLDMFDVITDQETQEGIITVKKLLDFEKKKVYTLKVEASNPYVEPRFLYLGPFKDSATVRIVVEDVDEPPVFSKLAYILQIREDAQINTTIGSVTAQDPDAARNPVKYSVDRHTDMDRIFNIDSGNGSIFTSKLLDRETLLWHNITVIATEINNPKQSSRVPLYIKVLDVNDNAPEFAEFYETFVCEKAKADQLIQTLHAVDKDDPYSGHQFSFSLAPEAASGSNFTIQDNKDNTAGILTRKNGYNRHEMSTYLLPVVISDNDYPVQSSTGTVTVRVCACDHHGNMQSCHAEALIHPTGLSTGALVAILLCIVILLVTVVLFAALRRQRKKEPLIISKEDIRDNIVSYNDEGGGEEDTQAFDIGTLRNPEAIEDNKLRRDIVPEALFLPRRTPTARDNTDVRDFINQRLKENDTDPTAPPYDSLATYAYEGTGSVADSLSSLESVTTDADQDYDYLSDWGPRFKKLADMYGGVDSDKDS
assay-summary: FACS, PA-1 cells
Numeric answer only, unit nM assumed.

Please review the entries below; each comes with its answer.
{"columns": ["binder", "EC50 (nM)"],
 "data": [
  ["CHI-CDH6-8 (antibody, human IgG1, kappa, V domains shown, also called chimeric antibody of murine CDH6-8) VH: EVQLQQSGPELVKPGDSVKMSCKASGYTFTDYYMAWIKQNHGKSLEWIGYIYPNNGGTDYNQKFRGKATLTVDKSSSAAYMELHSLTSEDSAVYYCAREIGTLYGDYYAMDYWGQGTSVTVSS VL: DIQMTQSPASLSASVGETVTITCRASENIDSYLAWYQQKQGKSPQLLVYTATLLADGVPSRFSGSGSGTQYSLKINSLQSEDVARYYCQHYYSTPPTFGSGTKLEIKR", 0.23],
  ["CHI-CDH6-7 (antibody, human IgG1, kappa, V domains shown, also called CH1-CDH6-7; chimeric antibody of murine CDH6-7) VH: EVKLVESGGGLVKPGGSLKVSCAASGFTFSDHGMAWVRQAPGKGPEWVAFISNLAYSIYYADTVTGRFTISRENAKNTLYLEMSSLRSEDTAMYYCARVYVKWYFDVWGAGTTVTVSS VL: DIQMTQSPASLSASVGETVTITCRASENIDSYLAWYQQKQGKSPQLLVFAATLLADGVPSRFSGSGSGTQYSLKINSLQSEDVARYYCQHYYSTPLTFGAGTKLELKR", 7.57]
]}

--- query ---
Looking for the measured EC50 of DS-H01L02 (antibody, human IgG1, kappa, V domains shown, Positive control, variable regions from WO2018212136A1; also called positive control anti-human CDH6 antibody) VH: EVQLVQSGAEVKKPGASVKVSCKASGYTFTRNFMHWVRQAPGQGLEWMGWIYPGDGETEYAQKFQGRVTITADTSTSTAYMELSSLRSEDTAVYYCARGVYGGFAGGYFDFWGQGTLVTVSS VL: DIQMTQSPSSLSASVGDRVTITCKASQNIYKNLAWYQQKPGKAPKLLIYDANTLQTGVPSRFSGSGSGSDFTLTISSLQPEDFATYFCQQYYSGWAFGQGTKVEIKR , can you help? 1.09
